# experimentalTarget: EGFR L858R (BaF3-L858R cells) (Homo sapiens, UniProt P00533, L858R)
# Construct: host or cells: BaF3
# Sequence (P00533 25-1210 L858R): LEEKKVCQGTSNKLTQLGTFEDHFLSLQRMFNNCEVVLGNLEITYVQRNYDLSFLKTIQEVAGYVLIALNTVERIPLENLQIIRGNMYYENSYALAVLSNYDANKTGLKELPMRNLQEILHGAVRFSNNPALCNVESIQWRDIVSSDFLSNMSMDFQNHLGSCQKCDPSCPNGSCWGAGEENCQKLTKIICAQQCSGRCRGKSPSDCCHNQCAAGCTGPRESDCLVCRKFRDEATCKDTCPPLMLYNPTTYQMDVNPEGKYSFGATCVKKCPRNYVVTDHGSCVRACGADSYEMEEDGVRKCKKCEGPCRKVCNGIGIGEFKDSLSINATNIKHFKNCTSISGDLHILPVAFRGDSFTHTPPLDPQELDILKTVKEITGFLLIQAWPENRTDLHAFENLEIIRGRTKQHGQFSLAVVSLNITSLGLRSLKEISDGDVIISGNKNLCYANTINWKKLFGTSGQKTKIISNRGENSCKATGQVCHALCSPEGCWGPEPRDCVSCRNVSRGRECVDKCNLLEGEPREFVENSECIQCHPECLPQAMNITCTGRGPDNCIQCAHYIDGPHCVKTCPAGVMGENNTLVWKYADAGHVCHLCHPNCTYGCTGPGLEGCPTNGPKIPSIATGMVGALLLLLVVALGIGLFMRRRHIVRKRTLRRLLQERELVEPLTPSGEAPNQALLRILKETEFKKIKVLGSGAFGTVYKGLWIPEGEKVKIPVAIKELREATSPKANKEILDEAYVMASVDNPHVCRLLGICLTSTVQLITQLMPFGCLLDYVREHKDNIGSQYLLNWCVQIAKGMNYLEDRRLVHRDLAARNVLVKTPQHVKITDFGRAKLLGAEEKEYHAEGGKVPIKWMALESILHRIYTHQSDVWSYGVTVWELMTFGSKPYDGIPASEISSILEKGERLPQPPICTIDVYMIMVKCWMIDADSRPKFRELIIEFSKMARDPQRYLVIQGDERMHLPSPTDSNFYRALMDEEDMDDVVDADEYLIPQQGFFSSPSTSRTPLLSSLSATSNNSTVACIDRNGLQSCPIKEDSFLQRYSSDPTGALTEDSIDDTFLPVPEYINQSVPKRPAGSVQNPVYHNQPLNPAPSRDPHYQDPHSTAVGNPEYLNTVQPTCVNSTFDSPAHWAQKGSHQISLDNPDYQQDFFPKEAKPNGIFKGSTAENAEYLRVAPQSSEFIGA
# assayText: Cell degradation of EGFR, HTRF assay, BaF3-L858R cells
# Assay type: cell-based
# experimentalContext: 16 h treatment, EGFR degradation
recordedMetric: DC50 (nM)

COC[C@H]1CN(c2ccc3c(c2)N2CC4CC[C@H](COc5c(c(C)nn5C)-c5cc(cc(C)n5)C(=O)/N=C/2N3)C4)CCN1C1CCN(c2cc(F)c([C@H]3CCC(=O)NC3=O)c(F)c2)CC1	2.04
Cc1cc2cc(n1)-c1c(C)nn(C)c1OC[C@H]1CC[C@H](C1)CN1/C(=N/C2=O)Nc2ccc(N3C[C@H](C)N(C4CCN(c5cc(F)c([C@H]6CCC(=O)NC6=O)c(F)c5)CC4)C[C@@H]3C)cc21	8.79
COC[C@H]1CN(c2ccc3c(c2)N2C[C@H]4CC[C@@H](COc5c(c(C)nn5C)-c5cc(cc(C)n5)C(=O)/N=C/2N3)C4)CCN1C1CCN(c2cc(F)c([C@H]3CCC(=O)NC3=O)c(F)c2)CC1	8.77

1 = COC[C@@H]1CN(c2cc3c(cc2F)N/C2=N\C(=O)c4cc(C)nc(c4)-c4cnn(C)c4OC[C@H]4CCC(C4)CN23)CCN1C1CCN(c2cc(F)c([C@H]3CCC(=O)NC3=O)c(F)c2)CC1
2 = Cc1cc2cc(n1)-c1cnn(C)c1OC[C@H]1CC[C@H](C1)CN1/C(=N/C2=O)Nc2ccc(N3CCN([C@@H]4CCN(c5c(C)cc(C6CCC(=O)NC6=O)nc5C)C[C@@H]4F)CC3)cc21 (some centres unmarked)
Prompt: Two entries are listed, 1 and 2 . Which one carries the higher DC50? Your choice should be expressed through its label.
Completion: 1
